testedOn: LPA/S1P GPCR of interest (Homo sapiens, UniProt Q92633)
Sequence (Q92633 whole entry): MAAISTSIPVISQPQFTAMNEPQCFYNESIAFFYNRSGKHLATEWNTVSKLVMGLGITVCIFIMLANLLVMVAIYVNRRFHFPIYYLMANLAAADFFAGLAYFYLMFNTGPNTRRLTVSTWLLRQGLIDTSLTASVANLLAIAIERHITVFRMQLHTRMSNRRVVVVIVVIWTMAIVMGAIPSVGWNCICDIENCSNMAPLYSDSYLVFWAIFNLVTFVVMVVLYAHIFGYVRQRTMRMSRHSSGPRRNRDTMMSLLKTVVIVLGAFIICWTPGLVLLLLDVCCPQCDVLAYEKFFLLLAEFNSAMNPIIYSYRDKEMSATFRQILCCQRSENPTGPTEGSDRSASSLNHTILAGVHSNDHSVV
procedureSummary: Beta-Arrestin based assay (PathHunter)
pEC50: −log10 of the molar value.
measuredMetric: pEC50

In: Sample Cc1noc(-c2ccc(-c3ccc(Oc4ccccc4C(=O)O)nc3)cc2)c1NC(=O)O[C@H](C)c1ccccc1 — what was its pEC50?
Out: > 7.30

In: Sample Cc1nsc(-c2ccc(-c3ccc(OC4(C(=O)O)CC4)cc3)cc2)c1NC(=O)O[C@H](C)c1ccccc1 — what was its pEC50?
Out: > 7.30

In: Sample Cc1noc(-c2ccc(-c3ccc(Oc4c(C)nn(C)c4C(=O)O)cc3)cc2)c1NC(=O)O[C@H](C)c1ccccc1 — what was its pEC50?
Out: > 7.30

In: Sample C[C@@H](OC(=O)Nc1c(-c2cc3sc(-c4ccc(CC(=O)O)nc4)cc3s2)cnn1C)c1ccccc1 — what was its pEC50?
Out: 6.30 to 7.30

In: Sample Cc1cc(-c2cc3sc(-c4snc(C)c4NC(=O)O[C@H](C)c4ccccc4)cc3s2)ccc1CC(=O)O — what was its pEC50?
Out: < 6.30

In: Sample COc1cc(-c2cc3sc(-c4snc(C)c4NC(=O)O[C@H](C)c4ccccc4)cc3s2)c(OC)cc1CC(=O)O — what was its pEC50?
Out: < 6.30

In: Sample Cc1noc(-c2ccc(-c3ccc(C4(C(=O)O)CC4(F)F)cc3)cc2)c1NC(=O)O[C@H](C)c1ccccc1 (some centres unmarked) — what was its pEC50?
Out: > 7.30

In: Sample Cc1noc(-c2ccc(-c3ccc(Oc4ccccc4C(=O)O)cc3)cc2)c1NC(=O)O[C@H](C)c1ccccc1 — what was its pEC50?
Out: > 7.30

In: Sample Cc1nnn(-c2ccc(-c3ccc(Oc4ccccc4C(=O)O)cc3)cc2)c1NC(=O)O[C@H](C)c1ccccc1 — what was its pEC50?
Out: 6.30 to 7.30

In: Sample CCn1ncc(-c2ccc(-c3cc(F)c(Oc4ncccc4C(=O)O)c(F)c3)cc2)c1NC(=O)O[C@H](C)c1ccccc1 — what was its pEC50?
Out: > 7.30

Further cases:
In: Sample C[C@@H](OC(=O)Nc1c(-c2cc3sc(-c4cc(Cl)c(CC(=O)O)cc4F)cc3s2)cnn1C)c1ccccc1 — what was its pEC50?
Out: < 6.30

In: Sample COc1cc(C2(C(=O)O)CC2)ccc1-c1cc2sc(-c3cnn(C)c3NC(=O)O[C@H](C)c3ccccc3)cc2s1 — what was its pEC50?
Out: 6.30 to 7.30
